Listed here are binders together with their documented % inhibition.
TARGET_DESC: T1, recombinant human EGFR extracellular domain with 6xHis (human, UniProt P00533 25-645)
T1 construct: In-house produced; also called 6xHis EGFR ECD; soluble human EGFR ECD; not shown: 6xHis tag
EXPERIMENT_NOTES: SPR competition, competitor 1254
Numeric answer only, unit % assumed.

Reference set (5 entries):
[[record]]
binder = "antibody 1257 (antibody, human IgG1, kappa, V domains shown, Chimeric IgG1 kappa) VH: EVQLQQSGPELVKPGASVKIPCKTSGYTFTDYNMAWVKQSHGKSLEWIGDIIPNNGGAIYNQKFKGKATLTVDKSSSTASMELRSLTSEDTAVYFCARKNIYYRYDGAGALDYWGQGTSVTVSS VL: QIVLTQSPAIMSASPGEKVTMTCSASSSVSYIYWYQQKPGSSPRLLIYDASNLASGVPVRFSGSGSGTSYSLTISRMEAEDAATYYCQQWSSYPITFGSGTKLEIKR"
result_number = 8

[[record]]
binder = "antibody 1261 (antibody, human IgG1, kappa, V domains shown, Chimeric IgG1 kappa) VH: EVQLVESGGGLVKPGGSLKLSCAVSGFTFSSYVMSWVRQTPEKRLEWVATITSGGRNIYYLDSVKGRFTISRDNAKNTLYLQMSSLRSEDTAMYYCARHEDYRYDGYYAMDYWGQGTSVTVSS VL: QIVLTQSPAIMSASPGEKVTITCSASSSVSYMHWFQQKPGTSPKLWIYSTSNLASGVPARFSGSGSGTSYSLTISRMEAEDAATYYCQQRSSYPYTFGGGTKLELKR"
result_number = -12

[[record]]
binder = "antibody 1260 (antibody, human IgG1, kappa, V domains shown, Chimeric IgG1 kappa) VH: QVQLKESGPGLVAPSQSLSITCTVSGFSLTTYGVHWVRQPPGKGLEWLGVIWAGGSTNYNSALMSRLSIKKDNSKSQVFLKMNSLQTDDTAMYYCARAYGYNFDYWGQGTTLTVSS VL: DIQMTQTTSSLSASLGDRVTISCSASQGITNYLNWYQQKPDGTVKLLIYYSSSLHSGVPSRFSGSGSGTDYSLTISNLEPEDIATYYCQQYSEIPYTFGGGTKLELKR"
result_number = 22

[[record]]
binder = "antibody 1344 (antibody, human IgG1, kappa, V domains shown, Chimeric IgG1 kappa) VH: QVQLKESGPGLVAPSQSLSITCTVSGFSLTIYGVHWVRQPPGKGLEWLGVIWAGGNTNYNSALMSRLSISKDNSKSQVFLKMNSLQTDDTAMYFCARGYGYNLDYWGQGTTLTVSS VL: DIQMTQTTSSLSASLGDRVTISCSASQGISNYLNWYQQKPDGTVKLLIYYTSSLHSGVPSRFSGSGSGTDYSLTISNLEPEDIATYYCQQYSKLPYTFGGGTKLEIKR"
result_number = 10

[[record]]
binder = "antibody 1208 (antibody, human IgG1, kappa, V domains shown, Chimeric IgG1 kappa; also called clone 1208) VH: EVQLVESGGGLVKPGGSLKLSCAASGFAFSSYDMSWVRQTPEKRLEWVAYIGSGDDNTHYPDSVKGRFTISRHNAKNTLYLQMSSLKSEDTAMYYCARQKYGNYGDTMDYWGQGTSVTVSS VL: DVVMTQTPLSLPVSLGDQASISCRSSQSLVHSNGNTYLHWYLQKPGQSPKLLIYKVSNRFSGVPDRFSGSGSGTDFTLKISRVEAEDLGVYFCSQSTHVPTFGGGTKLEIKR"
result_number = 33


Q: Look up % inhibition: antibody 1030 (antibody, human IgG1, kappa, V domains shown, Chimeric IgG1 kappa) VH: EVQLVESGGGLVKPGGSLKLSCAASGFTFSSYALSWVRQTPERRLEWVASISGVGSTYFPDSVKGRFTMSRDNARNILYLQMSSLRSEDTAMYYCARGSDGYFYAMDYWGQGTSVTVSS VL: DIVLTQSPASLAVSLGQRATISCRASKSVSTSGYSFMHWYQLKPGQPPKLLIYLASNLESGVPARFSGSGSGTDFTLNIHPVEEEDAATYYCQHSREFPLTFGGGTKLEIKR
A: 107

Q: Look up % inhibition: antibody 1284 (antibody, human IgG1, kappa, V domains shown, Chimeric IgG1 kappa) VH: QVQLQQPGAELVKPGASVKLSCKASGYTFTSDWMHWMKQRPGQGLEWIGEINPSNGRSSYNEKFKSKATLTVDKSSSTAYMQLSSLTSEDSAVYYCARIGGIYVETYWGQGTLVTVSS VL: DIVLTQSPASLAVSLGQRATISCRASQSVSTSTYSYMHWYQQKSGQPPKLLIKYASNLESGVPARFSGSGSGTDFTLNIHPVEEEDTATYYCQHSWEIPWTFGGGTKLEIKR
A: -3

Q: Look up % inhibition: antibody 1308 (antibody, human IgG1, kappa, V domains shown, Chimeric IgG1 kappa) VH: EVQLQQSGAELVRPGSSVKISCKASGYAFSSYWMNWVRQRPGQGLEWIGQIYPGDGDTNYNGKFKGRATLTANKSSSTAYMQLSSLTSEDSAVYFCARRASSLYDVYPYYFDYWGQGTTLTVSS VL: DIQMTQTTSSLSASLGDRVTISCRASQDISNYLNWYQQKPDGTVKVLIYYTSRLHSGVPSRFSGSGSGTDYSLTISNLEQEDIATYFCQQGNTLPYTFGGGTKLEIKR
A: 0
